- Test system: MDA-MB-231
- Experiment Notes: cells
- Measurement Conditions: Homo sapiens, MDA-MB-231, 72 h, read-out: INH
- Description: Antitumor activity against human MDA-MB-231 cells assessed as inhibition of cell viability by measuring inhibition rate at 20 uM measured after 72 hrs by CCK-8 assay relative to control

{"Test Smiles": "Cc1ccc(-n2nc(C(=O)NCCN(C)C)c(=O)n(Cc3ccccc3)c2=O)cc1C", "inhibition at 20 µM": "97.7%"}
{"Test Smiles": "Cc1ccc(-n2nc(C#N)c(=O)n(Cc3ccccc3)c2=O)cc1C", "inhibition at 20 µM": "96.4%"}
{"Test Smiles": "Cc1ccc(-n2nc(C#N)c(=O)n(Cc3ccc(F)cc3)c2=O)cc1C", "inhibition at 20 µM": "93.6%"}
{"Test Smiles": "Cc1ccc(-n2nc(C(=O)N3CCCCC3)c(=O)n(Cc3cccc(F)c3)c2=O)cc1C", "inhibition at 20 µM": "99.6%"}
{"Test Smiles": "CC#CCn1c(=O)c(C#N)nn(-c2ccc(C)c(C)c2)c1=O", "inhibition at 20 µM": "85.5%"}
{"Test Smiles": "Cc1ccc(-n2nc(C(=O)Nc3ccc(CN4CCOCC4)cc3)c(=O)n(Cc3ccccc3)c2=O)cc1C", "inhibition at 20 µM": "52.8%"}
{"Test Smiles": "Cc1ccc(-n2nc(C#N)c(=O)n(Cc3cccc(F)c3)c2=O)cc1C", "inhibition at 20 µM": "91.1%"}
{"Test Smiles": "CCN1CCN(C(=O)c2nn(-c3ccc(C)c(C)c3)c(=O)n(Cc3ccccc3)c2=O)CC1", "inhibition at 20 µM": "93.3%"}
{"Test Smiles": "Cc1ccc(-n2nc(C(=O)N3CC(N(C)C(=O)OC(C)(C)C)C3)c(=O)n(Cc3cccc(F)c3)c2=O)cc1C", "inhibition at 20 µM": "98.5%"}

* * *

- Test system: MDA-MB-231
- Experiment Notes: cells
- Measurement Conditions: Homo sapiens, MDA-MB-231, 72 h, read-out: INH
Items are presented alongside their recorded inhibition at 20 µM.

{"Compound": "Cc1ccc(-n2nc(C#N)c(=O)n(Cc3ccccc3F)c2=O)cc1C", "inhibition at 20 µM": "93.5%"}
{"Compound": "Cc1ccc(-n2nc(C(=O)N3CCN(C(=O)N(C)C)CC3)c(=O)n(Cc3cccc(F)c3)c2=O)cc1C", "inhibition at 20 µM": "12.8%"}
{"Compound": "Cc1ccc(-n2nc(C(=O)N3CCC[C@H](NC(=O)OC(C)(C)C)C3)c(=O)n(Cc3cccc(F)c3)c2=O)cc1C", "inhibition at 20 µM": "98%"}
{"Compound": "Cc1ccc(-n2nc(C(=O)N3CCCC3)c(=O)n(Cc3ccccc3)c2=O)cc1C", "inhibition at 20 µM": "95.4%"}
{"Compound": "Cc1ccc(-n2nc(C(=O)N3CCCN(C(=O)OC(C)(C)C)C3)c(=O)n(Cc3cccc(F)c3)c2=O)cc1C", "inhibition at 20 µM": "96%"}
{"Compound": "Cc1ccc(-n2nc(C(=O)N3CCN(c4ccccc4)CC3)c(=O)n(Cc3ccccc3)c2=O)cc1C", "inhibition at 20 µM": "79%"}
{"Compound": "Cc1ccc(-n2nc(C(=O)N3CCCC(CNC(=O)OC(C)(C)C)C3)c(=O)n(Cc3cccc(F)c3)c2=O)cc1C (stereo not drawn)", "inhibition at 20 µM": "96%"}
{"Compound": "Cc1ccc(-n2nc(C#N)c(=O)n(Cc3cccc(C(F)(F)F)c3)c2=O)cc1C", "inhibition at 20 µM": "92.9%"}

* * *

Items are presented alongside their recorded inhibition at 20 µM.
- Test system: MDA-MB-231
- Experiment Notes: cells
- Measurement Conditions: Homo sapiens, MDA-MB-231, 72 h, read-out: INH
Readout Type: inhibition at 20 µM (%)

{"Test Smiles": "Cc1ccc(-n2nc(C(=O)NCCN3CCOCC3)c(=O)n(Cc3ccccc3)c2=O)cc1C", "Quantity Unit": "%", "Observed": 60.9}
{"Test Smiles": "Cc1ccc(-n2nc(C(=O)NC3CCN(Cc4ccccc4)CC3)c(=O)n(Cc3ccccc3)c2=O)cc1C", "Quantity Unit": "%", "Observed": 74.9}
{"Test Smiles": "Cc1ccc(-n2nc(C(=O)N3CCC(F)CC3)c(=O)n(Cc3ccccc3)c2=O)cc1C", "Quantity Unit": "%", "Observed": 99.3}
{"Test Smiles": "Cc1ccc(-n2nc(C(=O)N3CCN(C(=O)C4CC4)CC3)c(=O)n(Cc3cccc(F)c3)c2=O)cc1C", "Quantity Unit": "%", "Observed": 22.2}
{"Test Smiles": "Cc1ccc(-n2nc(C(=O)N3CCC[C@H](CNC(=O)OC(C)(C)C)C3)c(=O)n(Cc3cccc(F)c3)c2=O)cc1C", "Quantity Unit": "%", "Observed": 99.9}
{"Test Smiles": "Cc1ccc(-n2nc(C(=O)N3C4CCC3CN(C(=O)OC(C)(C)C)C4)c(=O)n(Cc3cccc(F)c3)c2=O)cc1C", "Quantity Unit": "%", "Observed": 14.5}
{"Test Smiles": "Cc1ccc(-n2nc(C(=O)N3CCCN(C(=O)OC(C)(C)C)CC3)c(=O)n(Cc3cccc(F)c3)c2=O)cc1C", "Quantity Unit": "%", "Observed": 98.3}
{"Test Smiles": "Cc1ccc(-n2nc(C(=O)NCc3ccccn3)c(=O)n(Cc3ccccc3)c2=O)cc1C", "Quantity Unit": "%", "Observed": 71.2}
{"Test Smiles": "Cc1ccc(-n2nc(C(=O)N3CCCNCC3)c(=O)n(Cc3ccccc3)c2=O)cc1C", "Quantity Unit": "%", "Observed": 53.6}
{"Test Smiles": "CCn1c(=O)c2cc(C(N)=O)c(N)nc2n(C2CC2)c1=O", "Quantity Unit": "%", "Observed": 4.67}
{"Test Smiles": "Cc1ccc(-n2nc(C(=O)N3CCC(F)(F)CC3)c(=O)n(Cc3cccc(F)c3)c2=O)cc1C", "Quantity Unit": "%", "Observed": 84.3}
{"Test Smiles": "Cc1ccc(-n2nc(C#N)c(=O)n(Cc3ccncc3)c2=O)cc1C", "Quantity Unit": "%", "Observed": 0.27}
{"Test Smiles": "Cc1ccc(-n2nc(C(=O)N3CCCN(C)CC3)c(=O)n(Cc3ccccc3)c2=O)cc1C", "Quantity Unit": "%", "Observed": 97.2}

* * *

- Experiment Notes: Kinetic solubility of the compound in PBS buffer at pH 7.4 measured by HPLC analysis
Quick rule: solubility kinetic of at least 100 µM means Yes, below that means No.

{"Test Smiles": "Cc1ccc(-n2nc(C(=O)N3CCC[C@H](CNC(=O)OC(C)(C)C)C3)c(=O)n(Cc3cccc(F)c3)c2=O)cc1C", "Label Class": "No"}
{"Test Smiles": "Cc1ccc(-n2nc(C(=O)N3CCCCCC3)c(=O)n(Cc3ccccc3)c2=O)cc1C", "Label Class": "No"}
{"Test Smiles": "Cc1ccc(-n2nc(C(=O)N3CCCCC3)c(=O)n(Cc3ccc(F)cc3)c2=O)cc1C", "Label Class": "No"}
{"Test Smiles": "Cc1ccc(-n2nc(C#N)c(=O)n(Cc3cccnc3)c2=O)cc1C", "Label Class": "Yes"}
{"Test Smiles": "Cc1ccc(-n2nc(C(=O)N3CC3)c(=O)n(Cc3ccccc3)c2=O)cc1C", "Label Class": "No"}
{"Test Smiles": "COc1ccccc1CNC(=O)c1nn(-c2ccc(C)c(C)c2)c(=O)n(Cc2ccccc2)c1=O", "Label Class": "No"}
